Origin of the recorded values: patent US11046680B1

Overview of reported EC50 across a group of compounds:
target: human APJ receptor (Homo sapiens (Human), UniProt P35414); test: biochemical; conditions: [35S]GTPγS binding, CHO membranes expressing human APJ receptor; read-out: Activity hAPJ SPA EC50 IP
Sequence (P35414 whole entry): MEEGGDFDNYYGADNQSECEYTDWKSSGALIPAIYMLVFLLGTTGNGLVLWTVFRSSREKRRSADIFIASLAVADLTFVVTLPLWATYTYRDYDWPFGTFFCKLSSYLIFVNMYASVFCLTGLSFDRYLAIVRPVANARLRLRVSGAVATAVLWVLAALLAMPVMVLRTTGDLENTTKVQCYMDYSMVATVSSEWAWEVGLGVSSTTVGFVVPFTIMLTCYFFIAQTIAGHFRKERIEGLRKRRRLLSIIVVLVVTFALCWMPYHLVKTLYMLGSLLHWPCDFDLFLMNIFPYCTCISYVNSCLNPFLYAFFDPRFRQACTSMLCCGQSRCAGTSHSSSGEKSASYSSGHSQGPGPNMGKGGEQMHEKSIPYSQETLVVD
Number first, unit second: that is the form wanted.

C[C@H](c1ncc(Cl)cn1)[C@H](C)S(=O)(=O)Nc1nnc(-c2ccn(C)n2)n1-c1c(F)cccc1F [Example 228.0] | 4 nM
COc1cccc(OC)c1-n1c(NS(=O)(=O)C[C@H](O)c2ccc(Cl)cn2)nnc1-c1ccn(C)n1 (mixture of isomers) [Example 363.0] | 1.5 nM

As a next step, examine the compound that follows.
Lookup result for COc1cccc(OC)c1-n1c(NS(=O)(=O)[C@@H](C)[C@H](OC)c2ncc(C)cn2)nnc1-c1ccc(C)s1 [Example 332.0] ; measured EC50: 0.37 nM
